assay: chemical genetic growth profiling, strain panel (AID 1159580);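 note: tested at 20 µM; growth read once vehicle control cultures reached saturation at 30 °C; 1 = growth at the plate median or of vehicle wells; lower values mean less growth of the strain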; conditions: S. cerevisiae deletion strains, growth OD, locus YKL160W, strain elf1, active compounds read low
Out of some 5,500 compounds screened, about 2,000 (36%) were called active. Another 18% or so got no clear call; they are omitted. Some of the results follow.
Listing of recorded normalized growth by entry.
I'd appreciate a reply containing only the number, no unit.

MOLECULE	normalized growth
CNC(C)(C)Cc1ccccc1	1.01

Please give the measured normalized growth for this molecule: `O=C1C=C(O)c2ccccc2C1=O`
0.912

Please give the measured normalized growth for this molecule: `CCCCCC/C=C\CCCCCCCc1cccc(O)c1C(=O)O`
0.997

Please give the measured normalized growth for this molecule: `COc1cc(O)ccc1C(C)=O`
1.02

Please give the measured normalized growth for this molecule: `COc1cc([C@@H]2c3cc4c(cc3[C@H](O)[C@H]3COC(=O)[C@H]23)OCO4)cc(OC)c1OC`
1
